- targetDesc: GDP-bound KRAS wild-type protein (Homo sapiens, UniProt P01116)
- Sequence (P01116 whole entry): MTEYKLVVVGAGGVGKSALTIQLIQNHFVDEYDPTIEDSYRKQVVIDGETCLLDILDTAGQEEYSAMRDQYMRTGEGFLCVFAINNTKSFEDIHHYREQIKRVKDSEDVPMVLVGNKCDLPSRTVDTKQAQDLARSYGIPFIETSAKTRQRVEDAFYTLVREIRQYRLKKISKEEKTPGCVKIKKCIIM
- protocolNotes: Binding to KRAS by surface plasmon resonance (SPR), Single Cycle Kinetics
- conditions: SPR Single Cycle Kinetics, GDP-bound KRAS wild-type protein, 1:1 binding model; read-out: KRAS KD
Where a SMILES comes first, the peptide text is derived from it. Bridges are numbered along the chain shown (N, C = ends). [ ]: non-standard residue; d: D form. The star is where a group is joined. hPhe(3-Cl-4-CF3) = N[C@@H](CCc1ccc(C(F)(F)F)c(Cl)c1)C(=O)O; NPrPhe(4-CF3) = CCCN[C@@H](Cc1ccc(C(F)(F)F)cc1)C(=O)O; Pip(4,4-F2) = O=C(O)[C@@H]1CC(F)(F)CCN1; NMeGly(cPent) = CN[C@H](C(=O)O)C1CCCC1; NMeD = CN[C@@H](CC(=O)O)C(=O)O; NMeL = CN[C@@H](CC(C)C)C(=O)O; Morpholide = C1CN(*)CCO1; Ac5c = NC1(C(=O)O)CCCC1; NEtG = CCNCC(=O)O; Sar = CNCC(=O)O
assayEndpoint: Kd (nM)
Quick reminder: number only, in nM, skip the unit.

Please report the recorded Kd for CCO[C@@H]1C[C@H]2C(=O)NC3(CCC3)C(=O)N(C)[C@@H](C3CCCC3)C(=O)N(C)[C@H](C(=O)N(C)CC)CC(=O)N(C)[C@@H](CC(C)C)C(=O)N[C@@H]([C@@H](C)CC)C(=O)N(C)CC(=O)N(C)[C@H]3C/C=C\CCN(C3=O)[C@@H](Cc3ccc(C(F)(F)F)cc3)C(=O)N(C)CC(=O)N[C@@H](CCc3ccc(C(F)(F)F)c(OC)c3)C(=O)N2C1 . 0.091

Please report the recorded Kd for CCC[C@H]1C(=O)N[C@@H]([C@@H](C)CC)C(=O)N(C)CC(=O)N(C)[C@H]2C/C=C\CCN(C2=O)[C@@H](Cc2ccc(C)cc2)C(=O)N(C)CC(=O)N[C@@H](CCc2cc(Cl)c3c(ccn3C)c2)C(=O)N2C[C@H](OCC)C[C@H]2C(=O)NC2(CC(C)(C)C2)C(=O)N(C)[C@@H](C(CC)CC)C(=O)N(C)[C@H](C(=O)N(C)C)CC(=O)N1C . 4.8

Please report the recorded Kd for CCCN1C(=O)CN(C)C(=O)CN(CC)C(=O)[C@H]([C@@H](C)CC)NC(=O)[C@H](CC(C)C)N(C)C(=O)C[C@@H](C(=O)N2CCOCC2)N(C)C(=O)[C@H](C2CCCC2)N(C)C(=O)C2(CCCC2)NC(=O)[C@@H]2CC(F)(F)CCN2C(=O)[C@H](CCc2ccc(C(F)(F)F)c(Cl)c2)NC(=O)CN(C)C(=O)[C@@H]1Cc1ccc(C(F)(F)F)cc1 [PP0298] ([NMeL]I[NEtG][Sar][NPrPhe(4-CF3)][Sar][hPhe(3-Cl-4-CF3)][Pip(4,4-F2)][Ac5c][NMeGly(cPent)][NMeD]-Morpholide; lactam N-11) . 3
